test system: SK-OV-3; experiment: Antiproliferative activity against human SK-OV-3 cells incubated for 72 hrs by alamar blue cell viability assay; format: functional, cell-based; conditions: SK-OV-3, 72 h
recorded_endpoint: pIC50
Give only the number. pIC50 is defined as minus log10 of concentration in molar units.

So what's the measured pIC50 for this one? CN1CCN(c2nc(Nc3ccc(S(N)(=O)=O)cc3)ncc2F)Cc2ccc(F)cc21 6.16

* * *

tested on: A549; assay: Antiproliferative activity against human A549 cells incubated for 72 hrs by alamar blue cell viability assay; format: functional, cell-based; settings: A549, 72 h
recorded_endpoint: IC50 (nM)
Kindly provide the numeric value in nM only, without the unit symbol.

So what's the measured IC50 for this one? CN1CCN(c2nc(Nc3ccc(S(N)(=O)=O)cc3)ncc2F)Cc2ccc(F)cc21 1530

* * *

test system: A549; experiment: Antiproliferative activity against human A549 cells incubated for 72 hrs by MTT assay; type: functional, cell-based; conditions: A549, 72 h
recorded_endpoint: pIC50
Give only the number. pIC50 is defined as minus log10 of concentration in molar units.

So what's the measured pIC50 for this one? O=C(N/N=C/c1coc2ccccc2c1=O)c1ccc(F)cc1 5.94

* * *

Target: Aurora kinase A (Homo sapiens)
Sequence (O14965 whole entry): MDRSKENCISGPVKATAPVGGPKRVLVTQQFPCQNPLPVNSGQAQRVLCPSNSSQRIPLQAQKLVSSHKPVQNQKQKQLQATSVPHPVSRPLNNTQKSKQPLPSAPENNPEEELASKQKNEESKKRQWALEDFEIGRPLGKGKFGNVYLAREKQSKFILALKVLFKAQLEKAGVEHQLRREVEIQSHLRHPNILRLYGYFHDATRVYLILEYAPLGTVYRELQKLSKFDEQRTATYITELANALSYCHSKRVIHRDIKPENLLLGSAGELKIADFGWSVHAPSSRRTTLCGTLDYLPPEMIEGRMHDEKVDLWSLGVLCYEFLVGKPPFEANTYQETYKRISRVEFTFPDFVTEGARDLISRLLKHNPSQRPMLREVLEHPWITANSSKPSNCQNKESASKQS
Test: Inhibition of Aurora A (unknown origin) using recombinant Lats2-N-ter as substrate incubated in the presence of ATP
recorded_endpoint: pIC50
Give only the number. pIC50 is defined as minus log10 of concentration in molar units.

Provide value of pIC50 for this record tested with Aurora kinase A (Homo sapiens): C=CCn1c(C)nc2ccc(Nc3nc(N4CCN(C)CC4)nc4ccccc34)cc21 7.46

* * *

experiment: Inhibition of Aurora B (unknown origin) using Ulight-PLK (Ser137) as substrate incubated for 60 mins by FRET-based Lance Ultra Kinase assay; design: species or system Homo sapiens
Can you tell me IC50 for the items I'm about to list?
Kindly provide the numeric value in nM only, without the unit symbol.

So what's the measured IC50 for this one? CC(=O)N1CCN(c2ccc(Nc3ncc(F)c(N4CCN(C)c5cc(F)ccc5C4)n3)cc2)CC1 9

So what's the measured IC50 for this one? CN1CCN(c2nc(Nc3ccc(S(N)(=O)=O)cc3)ncc2F)Cc2ccc(F)cc21 8

So what's the measured IC50 for this one? CN1CCN(c2ccc(Nc3ncc(F)c(N4CCN(C)c5cc(F)ccc5C4)n3)cc2)CC1 7

* * *

target: Aurora kinase A (Homo sapiens, UniProt O14965); test: Inhibition of N-terminal GST tagged Aurora A (unknown origin) expressed in recombinant baculovirus-infected Sf9 cells using tetra(LRRWSLG) as substrate preincubated for 15 mins followed by the addition of substrate for 90 mins in the presence of ATP by Kinase-Glo Plus reagent based luminescence assay
recorded_endpoint: IC50 (nM)
Kindly provide the numeric value in nM only, without the unit symbol.

Provide value of IC50 for this record tested with Aurora kinase A (Homo sapiens, UniProt O14965): COc1cc2ncnc(NCCc3ccc(NC(=O)Nc4ccccc4)cc3)c2cc1OC 25
